- Assay System: T1, NPY2 receptor (human (printed as hNPY2R), UniProt P49146 1-381)
- T1 sequence (looked up): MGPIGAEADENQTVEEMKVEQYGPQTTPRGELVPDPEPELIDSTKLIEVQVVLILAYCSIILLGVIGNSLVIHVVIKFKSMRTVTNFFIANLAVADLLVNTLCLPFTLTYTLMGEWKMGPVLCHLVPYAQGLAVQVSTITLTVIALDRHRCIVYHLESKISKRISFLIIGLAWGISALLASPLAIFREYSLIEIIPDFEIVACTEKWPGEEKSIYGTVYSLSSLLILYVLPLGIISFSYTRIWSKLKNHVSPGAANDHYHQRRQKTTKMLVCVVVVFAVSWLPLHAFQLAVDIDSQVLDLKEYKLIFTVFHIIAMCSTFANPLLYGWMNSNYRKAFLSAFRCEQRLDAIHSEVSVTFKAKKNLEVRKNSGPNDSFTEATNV
- Assay Method Text: cell-based or functional assay
Starred links: 1 amine or outer side, 2 acyl side, 3 side chain; linkers in the order of their positions; H or OH if unused. Non-standard residues stand in square brackets, D forms with d. Groups on a side chain read outwards from the residue. No end group written: not given here. *: point of attachment. C20 diacid = O=C(O)CCCCCCCCCCCCCCCCCCC(=O)*; γGlu = O=C(O)[C@H](CCC(=O)[*:2])N[*:1]; εLys = N[C@@H](CCCCN[*:1])C(=O)[*:2]; glu = not defined here; Aib = CC(C)(N)C(=O)O
List of EC50 hNPY2R 100% hP (CreLuc) values.
Attribute Measured: EC50 hNPY2R 100% hP (CreLuc) (nM)

| Binder | Attribute Measured | Measured Value |
| --- | --- | --- |
| YXEGTFTSDLSIXLEKQAQXAFVEWLIKGGPSEGASLRHYYNWLTRQRY (Aib at 2, 13, 20; K28 side chain carries C20DA-gGlu-gGlu-gGlu-gGlu-Glu-gGlu-eLys (so in the source); C-terminal amide) [Compound 234] | EC50 hNPY2R 100% hP (CreLuc) | 48.1 |
| Y[Aib]EGTFTSDYSI[Aib]LEK(Ac)QAQ[Aib]AFVEWLIK([εLys-glu-γGlu-γGlu-γGlu-γGlu-γGlu-C20 diacid])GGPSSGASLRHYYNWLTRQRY-NH2 (reading uncertain; also: TFA salt) [Compound 192] | EC50 hNPY2R 100% hP (CreLuc) | 128 |
| Y[Aib]EGTFTSDYSI[Aib]LEKQAQ[Aib]EFVQWLIKGGPSEGASLRHYYNWLTRQRY-NH2 (not fully specified (residue 28); also: TFA salt) [Compound 207] | EC50 hNPY2R 100% hP (CreLuc) | 50.3 |
| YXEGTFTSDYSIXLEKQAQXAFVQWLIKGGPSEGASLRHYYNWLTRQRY (Aib at 2, 13, 20; K28 side chain carries C18DA-gGlu-gGlu-gGlu-gGlu-gGlu-OEG-OEG; C-terminal amide) [Compound 246] | EC50 hNPY2R 100% hP (CreLuc) | 28.2 |
